Source: ChEMBL document CHEMBL1142074

- Test system: Mycobacterium tuberculosis
- Test: Antimycobacterial activity against Mycobacterium tuberculosis H37Ra ATCC 25177 by microplate alamar blue assay
- Type: functional
Reported endpoint: MIC
Please answer in the form of a number followed by its unit of measurement.

# input Consider the compound shown here: "Oc1c(I)cc(Cl)c2cccnc12" What is its recorded MIC?
# output 6.25 µg/mL

# input I have this compound here, "Oc1cccc2cccnc12" , and I need its recorded MIC.
# output 0.125 µg/mL

# input Which MIC reading was recorded for the compound "Oc1c(Br)cc(Br)c2cccnc12" ?
# output 6.25 µg/mL

# input What does the record list as MIC for "Cc1ccc2c(Cl)cc(Cl)c(O)c2n1" ?
# output 0.38 µg/mL

# input May I ask what MIC has been recorded for "Oc1ccc(Cl)c2cccnc12" ?
# output 0.125 µg/mL
